Each entry below carries its reported log10 of EC50.
Target: human muscarinic M1 receptor (Homo sapiens)
Sequence (P11229 1-460): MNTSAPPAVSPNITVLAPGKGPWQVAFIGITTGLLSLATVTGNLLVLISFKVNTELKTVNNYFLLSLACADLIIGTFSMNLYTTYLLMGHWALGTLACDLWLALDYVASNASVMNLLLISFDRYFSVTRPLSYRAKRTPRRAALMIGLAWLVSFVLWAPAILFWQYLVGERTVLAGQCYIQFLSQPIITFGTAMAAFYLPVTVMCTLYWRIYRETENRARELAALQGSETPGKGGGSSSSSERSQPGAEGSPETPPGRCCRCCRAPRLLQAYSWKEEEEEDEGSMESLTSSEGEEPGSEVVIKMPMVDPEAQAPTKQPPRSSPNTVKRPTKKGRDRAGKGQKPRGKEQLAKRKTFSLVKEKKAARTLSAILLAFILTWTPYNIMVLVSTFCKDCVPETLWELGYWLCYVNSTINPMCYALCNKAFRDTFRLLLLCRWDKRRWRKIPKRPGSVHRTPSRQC
Test: Alphascreen Surefire phospho-ERK1/2 functional assay, M1
Type: cell-based
Settings: CHO cells stably expressing human M1; phospho-ERK1/2; * = variable results; read-out: pEC50 M1 (converted)
ASSAY_METRIC: log10 of EC50 (log10 of the value in µM)

In [3]: df
Out[3]:
                                    compound   assay_metric  quantitative_readout
 0  CCOC(=O)N1CCC2(CC(N3CCC(N4CCCC4c4nnn[nH]4)CC3)C2)C1 (single isomer, unassigned) [2-128 Isomer 2]  log10 of EC50                  1.00
 1  CCOC(=O)N1CCC2(CC(N3CCC([C@@H]4CCCN4C(=O)OCCF)CC3)C2)C1 (single isomer, unassigned) [2-47 Isomer 2]  log10 of EC50                  0.80
 2  CCOC(=O)N1CCC2(CC(N3CCC(N4C(=O)CCC4(C)C)CC3)C2)C1 (single isomer, unassigned) [2-117 Isomer 2]  log10 of EC50                  0.80
 3  CCOC(=O)N1CCC2(CC(N3CCC(C4CCCNC4=O)CC3)C2)C1 (single isomer, unassigned) [4-1 Isomer 4]  log10 of EC50                 -0.40
 4  CCOC(=O)N1CCC2(CC(N3CCC(N4CCCC4c4nnnn4C)CC3)C2)C1 (single isomer, unassigned) [2-130 Isomer 1]  log10 of EC50                 -0.50
 5  CCOC(=O)N1CCC2(CC(N3CCC(c4cc(C)c[nH]c4=O)CC3)C2)C1 (single isomer, unassigned) [3-15 Isomer 2]  log10 of EC50                 -0.60
 6  CCOC(=O)N1CCC2(CC(N3CCC(c4nnc[nH]4)CC3)C2)C1 (single isomer, unassigned) [1-26 Isomer 2]  log10 of EC50                  0.40
 7  CCOC(=O)N1CCC2(CC(N3CCC(c4nc(C(F)(F)F)cn4C)CC3)C2)C1 (single isomer, unassigned) [1-15 Isomer 2]  log10 of EC50                 -1.00
 8  CCOC(=O)N1CCC2(CC(N3CCC(O)(c4nccn4C)CC3)C2)C1 (single isomer, unassigned) [1-39 Isomer 2]  log10 of EC50                  0.00
 9  CCOC(=O)N1CCC2(CC(N3CCC(N4CC(F)(F)C[C@@H]4C(N)=O)CC3)C2)C1 (single isomer, unassigned) [2-90 Isomer 2]  log10 of EC50                 -0.80
10  CCOC(=O)N1CCC2(CC(N3CCC([C@@H]4CCCN4c4nncs4)CC3)C2)C1 (single isomer, unassigned) [2-83 Isomer 2]  log10 of EC50                  0.60
